# Test system: HT29 colon
# PROTOCOL_DESCRIPTION: NCI tumour cell line growth inhibition, 48 h
READOUT_LABEL: GI50

COMPOUND_STRUCTURE: CCOC(=O)Cc1csc(Nc2nc(O)c(C3=c4ccccc4=NC3=O)s2)n1
VALUE: 46 µM

COMPOUND_STRUCTURE: COc1ccc(/C=C/C(=O)c2ccc(B(O)O)cc2)cc1O
VALUE: 8.22 µM

COMPOUND_STRUCTURE: CSc1nc(SC)c2cnn(-c3ccnc4cc(Cl)ccc34)c2n1
VALUE: > 100 µM

COMPOUND_STRUCTURE: O=C1NC(=N[C@@H]2C[C@H]2c2ccccc2)S/C1=C\c1ccc2ncccc2c1
VALUE: 1.12 µM

COMPOUND_STRUCTURE: COc1c(O)cc2c(c1CC=C(C)C)OC(=O)c1c(cc(O)c(CC=C(C)C)c1O)O2
VALUE: 4.39 µM

COMPOUND_STRUCTURE: CCOC(=O)c1c2c(n(Cc3ccccc3)c1C)-c1nc[nH]c1C(=O)C2=O
VALUE: 28.9 µM

====

# Tested on: SNB-19 CNS
# PROTOCOL_DESCRIPTION: NCI tumour cell line growth inhibition, 48 h

COMPOUND: O=C(Nn1c(-c2ccccc2)nc2ccccc2c1=O)c1ccc([N+](=O)[O-])cc1
TGI: > 100 µM
--
COMPOUND: CO[C@@H]1[C@H](N(C)C(=O)c2ccccc2)C[C@@H]2O[C@]1(C)n1c3ccccc3c3c4c(c5c6ccccc6n2c5c31)C(=O)NC4=O
TGI: > 100 µM
--
COMPOUND: CC[C@H]1[C@@H](C)C=C[C@@H](C)N1S(=O)(=O)c1ccc(C)cc1
TGI: 35.3 µM
--
COMPOUND: O=C(CSc1nc2ccc([N+](=O)[O-])cc2[nH]1)Nc1ccc([N+](=O)[O-])cc1
TGI: 18 µM
--
COMPOUND: Brc1ccc(N=C/C=C(\Nc2ccc(Br)cc2)C23CC4CC(CC(C4)C2)C3)cc1
TGI: > 100 µM
--
COMPOUND: CC[C@@]1(O)C(=O)OCc2c1cc1n(c2=O)Cc2cc3c(OC)cccc3nc2-1
TGI: > 31.9 µM
--
COMPOUND: CC12OC(C(=O)C13CC3)C1C(=O)c3cccc(O)c3C(=O)C12 (centres undefined)
TGI: 40.1 µM
--
COMPOUND: COC(=O)C(=O)C(C(=O)C(=O)Nc1ccccc1C(N)=O)c1nc2ccc([N+](=O)[O-])cc2[nH]c1=O (centres undefined)
TGI: > 100 µM
--
COMPOUND: O=C(NCCNc1nccc(-c2c(-c3ccc(F)cc3)nc3sccn23)n1)Nc1cccc(C(F)(F)F)c1
TGI: 36.8 µM
--
COMPOUND: Cc1ccccc1C(C#N)/C(=N/NC(N)=S)C(=O)Nc1c(C)cccc1C (centres undefined)
TGI: > 100 µM
--
COMPOUND: Cn1cnc([N+](=O)[O-])c1Sc1nccn1-c1ccccc1
TGI: > 100 µM
--
COMPOUND: CC1NC(=O)c2c(-c3ccccc3)nn(-c3ccccc3)c2NC1=O (centres undefined)
TGI: > 100 µM
--
COMPOUND: CC[C@H](C)[C@H](NC(=O)[C@H](Cc1ccc(O)cc1)NCC(F)(F)F)C(=O)OC(C)(C)C
TGI: 15.8 µM
--
COMPOUND: COc1ccc(C(=O)O[C@@H]2CCN3CC[C@H](C)[C@H]23)cc1
TGI: > 100 µM
--
COMPOUND: Cc1c(/C=N/NC(=S)Nc2ccc([N+](=O)[O-])cc2)c(=O)n(-c2ccccc2)n1C
TGI: 31.8 µM
--
COMPOUND: C/C(CC(O)(C(F)(F)Cl)C(F)(F)Cl)=N\Nc1ccccc1
TGI: > 100 µM
--
COMPOUND: CN(NC(=O)c1ccc(Cl)cc1)C1=NCCCCN1
TGI: > 100 µM
--
COMPOUND: O=C(Cc1c(C(=O)Nc2ccccc2)sc(C(=O)Nc2ccccc2)c1CC(=O)Nc1ccccc1)Nc1ccccc1
TGI: > 100 µM
--
COMPOUND: CCN(CC)CCOc1ccc(N2Cc3cc(OC)c(OC)cc3C2=O)cc1
TGI: > 100 µM
--
COMPOUND: CN1C(=O)CNS1(=O)=O
TGI: > 100 µM
--
COMPOUND: CCOc1ccc(-n2c(=O)c3nn4c(=O)n(-c5ccc(OCC)cc5)c(=O)c4nn3c2=O)cc1
TGI: > 100 µM
--
COMPOUND: Cn1c(=O)oc2cc(C(=O)CN3CCN(Cc4ccc5c(c4)OCO5)CC3)c(Cl)cc21
TGI: > 100 µM
--
COMPOUND: Cc1ccc(NC(=O)CC2SC(=Nc3cccc(Cl)c3C)NC2=O)cc1 (centres undefined)
TGI: > 100 µM
--
COMPOUND: ClCCN(CCCl)c1ccc(OCc2ccccc2)cc1
TGI: > 100 µM
--
COMPOUND: Oc1c(Nc2ccccc2)cc2c3c1N=NC=3CCN=2
TGI: > 100 µM
--
COMPOUND: Cc1cc2c(=O)cc(-c3ccc(Cl)cc3Cl)oc2c(C(=O)O)c1C
TGI: > 100 µM
--
COMPOUND: c1ccc(C2C3=C(c4ccccc4CC3)N3c4cc5nc6ccccc6nc5cc4NC34CCCCC24)cc1 (centres undefined)
TGI: > 10 µM
--
COMPOUND: O=C1CNC(=O)N1
TGI: > 1120 µM
--
COMPOUND: CC1OC(n2ccc3ccc([N+](=O)[O-])cc32)C(O)C(O)C1O (centres undefined)
TGI: > 100 µM
--
COMPOUND: CC(=O)NS(=O)(=O)c1ccc(-n2nc(-c3ccccc3)cc2-c2cc(O)ccc2O)cc1
TGI: > 100 µM
--
COMPOUND: CC(C)(Cl)C(Br)CCC(=CCBr)CBr (mixture of isomers)
TGI: 13.1 µM
--
COMPOUND: OCC(O)COc1ccc(F)cc1 (centres undefined)
TGI: > 100 µM
--
COMPOUND: Nc1n[nH]c2ccc([C@H]3[C@@H]4C5CCC(C5)[C@@H]4c4c(ccc5[nH]ncc45)N3S(=O)(=O)C3CC3)cc12 (some centres undefined)
TGI: > 38.3 µM
--
COMPOUND: N[C@@H]1c2c(Br)sc(Br)c2C(=O)[C@H]1Br
TGI: > 74.6 µM
--
COMPOUND: N#Cc1nc(N)c(C#N)[nH]1
TGI: > 100 µM
--
COMPOUND: CC1(C)OP(=O)(c2ccccc2)C=C1Br (centres undefined)
TGI: > 100 µM
--
COMPOUND: COc1cc2c(OC)c3cc(C)oc(=O)c3c(O)c2c(O)c1-c1c(OC)cc2c(OC)c3cc(C)oc(=O)c3c(O)c2c1O
TGI: 65.1 µM
--
COMPOUND: O=C(NCCCNc1cc(-c2cn(-c3ccccc3)nc2-c2cccc(O)c2)ccn1)c1ccc(F)cc1
TGI: 29.5 µM
--
COMPOUND: CCCc1c(O)c2ccccc2[nH]c1=O
TGI: > 100 µM

Origin of values: PubChem BioAssay (NCI)
